Test Method Notes: A CellTox Green Cytotoxicity Assay to monitor cytotoxicity in HEK293 cells - 24 hour (AID 1224875); note: % is set by controls: 0 for no effect and ±100 for the full control effect; nearly all actives have a fitted effect of over 45% in size
Study Conditions: CellTox Green fluorescence; series mostly up to 76.8 µM
Results filed as inconclusive are left out. Activity calls are given as the source filed them. Calls come from the whole dose curve; as a rule, active = well fitted activation curve with a large enough effect in the repeat runs; inconclusive = weak or mixed curves; inactive = flat fitted curve, though single readings scatter.
Observation Type: outcome

Field: example entries. Status: answers known.
Compound	outcome
COP(=O)(OC)OC=C(Cl)Cl	inactive
Oc1cccc2cccnc12	inactive
Cc1cc(Cl)ccc1OCC(=O)O	inactive
COc1ccccc1N	inactive
O=C(O)C(Cl)Cl	inactive

Task: Requested field: outcome. Item: CCCCCCCCCCn1cc[n+](C)c1
Result: inactive

Task: Now consider CCOP(=S)(OCC)Oc1ccc2c(C)c(Cl)c(=O)oc2c1 and answer again.
Result: inactive

Task: And then CC[N+]1(C)CCCC1 , what is it?
Result: inactive

Task: Item: Nc1ccc(-c2ccc(N)cc2)cc1
Result: inactive

Task: Now try CCCCCCCCCCCC(=O)O .
Result: inactive

Task: Follow-up item: O=C(O)CC(O)(CC(=O)O)C(=O)O
Result: inactive

Task: Also check O=C(O)c1nc(Cl)ccc1Cl
Result: inactive

Task: Same read-out for Oc1ccccc1-c1ccccc1 ?
Result: inactive

====

Test Method Notes: qHTS assay to test for compound auto fluorescence at 460 nm (blue) in HEK293 cell free culture (AID 720681); note: % is set by controls: 0 for no effect and ±100 for the full control effect
Study Conditions: cell-free medium, autofluorescence 405/460 nm (blue); series mostly up to 91.3 µM
Calls of active or inactive are those of the source. The call rests on the fitted dose curve; in most records, active means well fitted curve in the direction sought with a large enough effect in the repeat runs; inconclusive means weak or mixed curves; inactive means flat fitted curve, though single readings scatter.
Observation Type: outcome

Example entries and their recorded answers appear below.
Compound	Observation Type	Observed
Nc1ccccc1	outcome	inactive
Cc1cc(-c2ccc(N)c(C)c2)ccc1N	outcome	inactive
OCCOc1ccccc1	outcome	inactive
CCC[N+]1(C)CCCCC1	outcome	inactive
COCC(=O)N(c1c(C)cccc1C)C(C)C(=O)OC (stereo unspecified)	outcome	inactive
O=[N+]([O-])O	outcome	inactive
CC(Cl)(Cl)C(=O)O	outcome	inactive
CCCC[n+]1cccc(C)c1	outcome	inactive
CCCCCCn1cc[n+](C)c1	outcome	inactive
CCCC[N+]1(C)CCCCC1	outcome	inactive

Task: Which value of outcome has been reported for CCOP(=S)(OCC)Oc1ccc2c(C)c(Cl)c(=O)oc2c1 in the records?
Result: inactive

Task: Same again, this time with COP(=O)(OC)OC=C(Cl)Cl
Result: inactive

Task: Please answer likewise for C[N+](C)(C)Cc1ccccc1
Result: inactive

Task: Quick one: COc1ccc(N)cc1
Result: inactive

Task: Can you check COP(=O)(OC)C(O)C(Cl)(Cl)Cl (stereo unspecified) next?
Result: inactive

Task: Let us now turn to CCCCCCCCCCCCOS(=O)(=O)O
Result: inactive

====

Measured On: Cytochrome P450 2C9 (Homo sapiens) (UniProt P11712)
Sequence (P11712 whole entry, looked up): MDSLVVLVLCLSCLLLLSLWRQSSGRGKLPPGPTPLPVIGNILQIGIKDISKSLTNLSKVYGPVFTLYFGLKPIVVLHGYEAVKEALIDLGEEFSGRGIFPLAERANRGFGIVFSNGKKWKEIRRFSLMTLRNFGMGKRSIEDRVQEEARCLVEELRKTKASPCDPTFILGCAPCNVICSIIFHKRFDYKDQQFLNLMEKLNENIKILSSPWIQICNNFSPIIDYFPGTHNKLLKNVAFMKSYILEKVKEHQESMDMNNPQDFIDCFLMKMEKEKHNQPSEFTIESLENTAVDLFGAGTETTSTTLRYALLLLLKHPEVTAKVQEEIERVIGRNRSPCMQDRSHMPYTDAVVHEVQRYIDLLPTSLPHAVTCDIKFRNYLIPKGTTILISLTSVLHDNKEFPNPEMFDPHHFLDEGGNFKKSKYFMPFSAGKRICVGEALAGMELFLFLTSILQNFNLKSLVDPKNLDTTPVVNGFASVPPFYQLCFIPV
Test Method Notes: Cytochrome P450 Family 2 Subfamily C Member 9 (CYP2C9) small molecule antagonists: luciferase reporter qHTS assay (AID 1671198); note: nearly all actives have a fitted effect of over 50% in size
Study Conditions: P450-Glo CYP2C9 enzyme assay, luciferin luminescence; series mostly up to 115 µM
Results filed as inconclusive are left out. Active and inactive are the calls of the source. Calls follow the shape of the dose curve; as a rule, active = well fitted inhibition curve with a large enough effect in the repeat runs; inconclusive = weak or mixed curves; inactive = no such curve, though single readings can be large or run the other way.
Return exactly one item of active, inactive

Known results for compounds:
Smiles Input	Classification
O=C(O)C(Cl)(Cl)Cl	inactive
Cc1cc(-c2ccc(N)c(C)c2)ccc1N	active
CCC[N+]1(C)CCCC1	inactive
CC[N+]1(C)CCCC1	inactive
O=C(O)C(Cl)Cl	inactive
CCCC[N+]1(C)CCCC1	inactive
CCCCCCCCCCCC(=O)O	active
CCCC[n+]1cccc(C)c1	inactive
O=C(O)CCl	inactive
CCCC[N+]1(C)CCCCC1	inactive

Task: For this compound, state the assay outcome: CCCn1cc[n+](C)c1
Result: inactive

Task: Next record, please: CCNc1nc(Cl)nc(NCC)n1
Result: inactive

====

Test Method Notes: qHTS RealTime-Glo MT Cell Viability Assay in HEK293 cells - 0 hour (AID 1224880); note: top concentration of the series differs between compounds; % is set by controls: 0 for no effect and ±100 for the full control effect; nearly all actives have a fitted effect of over 45% in size
Study Conditions: RealTime-Glo luminescence; series mostly up to 76.8 µM
Inconclusive results are not listed. Calls of active or inactive are those of the source. Calls follow the shape of the dose curve; as a rule, active = well fitted cell-killing curve with a large enough effect in the repeat runs; inconclusive = weak or mixed curves, or effect the other way; inactive = flat fitted curve, though single readings scatter.
Observation Type: outcome

// solved cases for outcome follow
Compound	Observed
Nc1ccc(-c2ccc(N)cc2)cc1	inactive
CNC	inactive
Nc1ccccc1	inactive
Oc1cccc2cccnc12	inactive
O=C(O)COc1ccc(Cl)cc1Cl	inactive

Task: Given the entry CCNc1nc(Cl)nc(NCC)n1 , report its measured outcome.
Result: inactive

Task: Follow-up entry: CCn1cc[n+](C)c1C
Result: inactive

Task: For CCCCCCCCCCCCn1cc[n+](C)c1 then?
Result: inactive

Task: How about CCCCCCCCCCCCCCCCn1cc[n+](C)c1 ?
Result: inactive

Task: Next entry: O=c1nc(O)n(Cl)c(=O)n1Cl
Result: inactive

====

Test Method Notes: qHTS assay to identify small molecule antagonists of the sonic hedgehog signaling (Shh) pathway (AID 1259369); note: nearly all actives have a fitted effect of over 45% in size
Study Conditions: NIH/3T3 Gli1-Luc reporter, Shh antagonist, luminescence 24 h; series mostly up to 92.4 µM
Records with an inconclusive call do not appear. Calls of active or inactive are those of the source. Calls come from the whole dose curve.
Reply using exactly one outcome from 1.0 = active, 0.0 = inactive

Example results:
Molecule	Classification
CCOP(=S)(OCC)Oc1ccc2c(C)c(Cl)c(=O)oc2c1	1.0
O=c1nc(O)n(Cl)c(=O)n1Cl	0.0
CC(Cl)(Cl)C(=O)O	0.0
O=C(O)COc1ccc(Cl)cc1Cl	0.0
COP(=O)(OC)C(O)C(Cl)(Cl)Cl (stereo unspecified)	0.0
CCCCCCCCCCCC(=O)O	0.0
CCCCn1cc[n+](C)c1C	0.0
CCCC[n+]1ccccc1C	0.0
CCCCn1cc[n+](C)c1	0.0
CCCCCCCCCCCCOS(=O)(=O)O	0.0

Consider now this further molecule.
Task: Query: recorded result category for CCCC[N+]1(C)CCCC1 in this test
Result: 0.0

====

Test Method Notes: qHTS assay to test for compound auto fluorescence at 590 nm (red) in HEK293 cell free culture (AID 720683); note: % is set by controls: 0 for no effect and ±100 for the full control effect
Study Conditions: cell-free medium autofluorescence, Ex540/Em590 red; series mostly up to 91.3 µM
Active and inactive are the calls of the source. Calls follow the shape of the dose curve; as a rule, active = well fitted curve in the direction sought with a large enough effect in the repeat runs; inconclusive = weak or mixed curves; inactive = flat fitted curve, though single readings scatter.
Observation Type: outcome

Before answering, review these 5 worked examples.
Compound	Observed
CCCCCCCCCCCCCCCCn1cc[n+](C)c1	inactive
O=C(O)COc1ccc(Cl)cc1Cl	inactive
CCn1cc[n+](C)c1C	inactive
O=C(O)CC(O)(CC(=O)O)C(=O)O	inactive
OCCOc1ccccc1	inactive

Task: Give its outcome value. Item: C1CCC(NC2CCCCC2)CC1
Result: inactive

Task: Lookup CCCCCCCCn1cc[n+](C)c1
Result: inactive

Task: Would you kindly repeat that for Cc1cc(-c2ccc(N)c(C)c2)ccc1N ?
Result: inactive

Task: Same read-out for CCCCn1cc[n+](C)c1C ?
Result: inactive

Task: Thanks! And CC[N+]1(C)CCCC1 ?
Result: inactive

====

Test Method Notes: qHTS assay to test for compound auto fluorescence at 535 nm (green) in HEK293 cell free culture (AID 720682); note: % is set by controls: 0 for no effect and ±100 for the full control effect
Study Conditions: cell-free medium, green autofluorescence 485/535 nm; series mostly up to 91.3 µM
The source made the active and inactive calls. Calls come from the whole dose curve; as a rule, active = well fitted curve in the direction sought with a large enough effect in the repeat runs; inconclusive = weak or mixed curves; inactive = flat fitted curve, though single readings scatter.
Observation Type: outcome

Compound	outcome
O=[N+]([O-])c1ccccc1O	inactive
O=C(O)C(Cl)(Cl)Cl	inactive
Oc1ccccc1-c1ccccc1	inactive
C[C@]12CCC(=O)C=C1CC[C@@H]1[C@@H]2CC[C@]2(C)C(=O)CC[C@@H]12	inactive
Nc1ccc(-c2ccc(N)c(Cl)c2)cc1Cl	inactive

Task: Consider the compound shown here: COc1ccc(N)cc1 What is its recorded outcome?
Result: inactive

Task: And for C1CCC(NC2CCCCC2)CC1 ?
Result: inactive

Task: Now consider CCCCCCCCCCCC(=O)O and answer again.
Result: inactive

Task: Now try Nc1ccccc1 .
Result: inactive

====

Measured On: Glucocorticoid receptor (Homo sapiens) (UniProt P04150)
Sequence (P04150 whole entry, looked up): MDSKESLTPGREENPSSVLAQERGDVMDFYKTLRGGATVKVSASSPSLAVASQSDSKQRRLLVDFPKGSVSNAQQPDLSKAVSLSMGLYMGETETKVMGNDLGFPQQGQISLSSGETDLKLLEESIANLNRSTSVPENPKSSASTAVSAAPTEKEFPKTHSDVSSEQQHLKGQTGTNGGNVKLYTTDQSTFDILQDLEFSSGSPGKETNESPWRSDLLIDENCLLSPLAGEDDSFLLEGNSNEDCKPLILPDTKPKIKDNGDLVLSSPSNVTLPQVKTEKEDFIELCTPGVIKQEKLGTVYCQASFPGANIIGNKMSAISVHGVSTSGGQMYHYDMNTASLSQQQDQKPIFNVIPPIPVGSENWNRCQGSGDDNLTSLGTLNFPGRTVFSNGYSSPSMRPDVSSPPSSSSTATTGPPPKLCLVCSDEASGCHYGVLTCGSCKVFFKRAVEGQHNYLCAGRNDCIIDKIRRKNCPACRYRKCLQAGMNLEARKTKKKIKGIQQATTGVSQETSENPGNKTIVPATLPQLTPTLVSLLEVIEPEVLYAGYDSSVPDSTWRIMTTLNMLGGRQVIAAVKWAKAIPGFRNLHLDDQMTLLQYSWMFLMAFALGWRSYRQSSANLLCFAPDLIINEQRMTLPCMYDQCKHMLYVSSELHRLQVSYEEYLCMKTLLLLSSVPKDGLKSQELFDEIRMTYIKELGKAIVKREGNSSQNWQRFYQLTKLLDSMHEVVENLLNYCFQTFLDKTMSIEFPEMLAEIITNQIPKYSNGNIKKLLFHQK
Test Method Notes: qHTS assay to identify small molecule agonists of the glucocorticoid receptor (GR) signaling pathway (AID 720691); note: % is set by controls: 0 for no effect and ±100 for the full control effect
Study Conditions: GR-bla HeLa, beta-lactamase reporter ratio, 18 h; series mostly up to 62.4 µM
Excerpt: U.S. Tox21 Program National Center for Advancing Translational Sciences [NCATS] NIH Chemical Genomics Center [NCGC] U.S. Environmental Protection Agency [EPA] National Institutes of Environmental Health Sciences [NIEHS] National Toxicology Program [NTP] U.S. Food and Drug Administration [FDA] […] The activation of the reporter gene under culture conditions can be detected by fluorescence intensity. […]
Inconclusive results are not listed. Active and inactive are the calls of the source. Calls come from the whole dose curve; as a rule, active = well fitted activation curve with a large enough effect in the signal ratio in the repeat runs (not every such curve was filed as active); inconclusive = weak or mixed curves, or effect the other way; inactive = no such curve, though single readings can be large or run the other way; the % refers to the signal ratio.

Compound	outcome
COP(=O)(OC)C(O)C(Cl)(Cl)Cl (stereo not drawn)	inactive
COc1ccc(N)cc1	inactive
Nc1ccc(-c2ccc(N)cc2)cc1	inactive

====

Test Method Notes: qHTS assay to test for compound auto fluorescence at 590 nm (red) in HepG2 cells (AID 720674); note: % is set by controls: 0 for no effect and ±100 for the full control effect
Study Conditions: HepG2 autofluorescence, red 540/590 nm, 1 h; series mostly up to 91.3 µM
Active and inactive are the calls of the source. Calls come from the whole dose curve; as a rule, active = well fitted curve in the direction sought with a large enough effect in the repeat runs; inconclusive = weak or mixed curves; inactive = flat fitted curve, though single readings scatter.
Observation Type: outcome

Smiles Input	outcome
O=C(O)CCl	inactive
CCCC[n+]1ccccc1C	inactive
CCCCCCCCn1cc[n+](C)c1	inactive
CCC[N+]1(C)CCCCC1	inactive
Nc1ccc(-c2ccc(N)cc2)cc1	inactive

Task: Would you mind telling me what outcome value was observed for CCCCCCCCCCCCCCCCn1cc[n+](C)c1 ?
Result: inactive

Task: Try CCCn1cc[n+](C)c1 next.
Result: inactive

Task: Also check Nc1ccc(-c2ccc(N)c(Cl)c2)cc1Cl
Result: inactive

Task: Item: COc1ccccc1N
Result: inactive

Task: Please do the same for CCNc1nc(Cl)nc(NCC)n1 as well.
Result: inactive

Task: How about this molecule: O=C(O)C(Cl)Cl
Result: inactive

Task: And CCCCn1cc[n+](C)c1 ?
Result: inactive
